Source: patent US20130029928A1

Assay: Phase I study CXR1002-001: plasma pharmacokinetics (LC-MS/MS)
Type: in vivo, human
Details: human, plasma, oral, 50 mg, Patient 002 Dose 50 mg; 6 hr
EXPERIMENTAL ENDPOINT: concentration at 6 h (µM)
Respond with the bare value in µM.

Prompt line: Requested read-out: concentration at 6 h. Entry: O=C(O)C(F)(F)C(F)(F)C(F)(F)C(F)(F)C(F)(F)C(F)(F)C(F)(F)F [CXR1002]
Response line: 17.5

---

Assay: Phase I study CXR1002-001: plasma pharmacokinetics (LC-MS/MS)
Assay type: in vivo, human
Details: human, plasma, oral, 450 mg, Patient 017 Dose 450 mg; 674 hr; read-out: Concentration
EXPERIMENTAL ENDPOINT: concentration at 674 h (µM)
Respond with the bare value in µM.

Prompt line: Requested read-out: concentration at 674 h. Entry: O=C(O)C(F)(F)C(F)(F)C(F)(F)C(F)(F)C(F)(F)C(F)(F)C(F)(F)F
Response line: 451

---

Assay: Phase I study CXR1002-001: plasma pharmacokinetics (LC-MS/MS)
Assay type: in vivo, human
Details: human, plasma, oral, 750 mg, Patient 028, 750 mg, person, plasma, 339 hr; read-out: Concentration
EXPERIMENTAL ENDPOINT: concentration at 339 h (µM)
Respond with the bare value in µM.

Prompt line: Requested read-out: concentration at 339 h. Entry: O=C(O)C(F)(F)C(F)(F)C(F)(F)C(F)(F)C(F)(F)C(F)(F)C(F)(F)F
Response line: 396

---

Experiment: Phase I study CXR1002-001: plasma pharmacokinetics (LC-MS/MS)
Format: in vivo, human
Conditions: human, plasma, oral, 200 mg, Patient 008 Dose 200 mg; 676 hr; read-out: Concentration
EXPERIMENTAL ENDPOINT: concentration at 676 h (µM)
Respond with the bare value in µM.

Prompt line: Requested read-out: concentration at 676 h. Entry: O=C(O)C(F)(F)C(F)(F)C(F)(F)C(F)(F)C(F)(F)C(F)(F)C(F)(F)F
Response line: 364

---

Assay: Phase I study CXR1002-001: plasma pharmacokinetics (LC-MS/MS)
Type: in vivo, human
Conditions: human, plasma, oral, 300 mg, Patient 013 Dose 300 mg; 24 hr (Day 2); read-out: Concentration
EXPERIMENTAL ENDPOINT: concentration at 24 h (µM)
Respond with the bare value in µM.

Prompt line: Requested read-out: concentration at 24 h. Entry: O=C(O)C(F)(F)C(F)(F)C(F)(F)C(F)(F)C(F)(F)C(F)(F)C(F)(F)F [CXR1002]
Response line: 79.6

---

Assay: Phase I study CXR1002-001: plasma pharmacokinetics (LC-MS/MS)
Format: in vivo, human
Settings: human, plasma, po, 1200 mg, Patient 038, 1200 mg weekly oral dose, Time 24 hr (Day 2); read-out: Concentration (plasma level)
EXPERIMENTAL ENDPOINT: concentration at 24 h (µM)
Respond with the bare value in µM.

Prompt line: Requested read-out: concentration at 24 h. Entry: O=C(O)C(F)(F)C(F)(F)C(F)(F)C(F)(F)C(F)(F)C(F)(F)C(F)(F)F
Response line: 242

---

Assay: Phase I study CXR1002-001: plasma pharmacokinetics (LC-MS/MS)
Format: in vivo, human
Conditions: human, plasma, oral, 300 mg, Patient 014 Dose 300 mg; 339 hr; read-out: Concentration
EXPERIMENTAL ENDPOINT: concentration at 339 h

Prompt line: Requested read-out: concentration at 339 h. Entry: O=C(O)C(F)(F)C(F)(F)C(F)(F)C(F)(F)C(F)(F)C(F)(F)C(F)(F)F [CXR1002]
Response line: 270 µM
